Parameter: pIC50. Scope: all listed entries.
# Tested on: normal human fibroblasts (BJ)
# Method: Calcein AM cytotoxicity assay, BJ
# Type: cell-based
# Cond: Homo sapiens, Fibroblast, read-out: IC50 assessed by Calcein AM assay of surviving cells
pIC50: −log10 of the molar value.
Measure: pIC50

INSERT INTO measurements (compound, readout_value) VALUES
  ('CC(C)[C@H](C)[C@@H](O)[C@H](O)[C@@H](C)[C@H]1CCC2C3COC(=O)C4C[C@H](O)[C@H](O)C[C@]4(C)C3CC[C@@]21C (some centres unmarked) [Brassinosteroid 1]', '< 4.30'),
  ('CC[C@H](/C=C/[C@@H](C)[C@H]1CC[C@H]2[C@@H]3CC=C4C[C@@H](O)CC[C@]4(C)[C@H]3CC[C@]12C)C(C)C [Stigmasterol]', '< 4.30');

###

# Test system: normal and cancer cell lines of different histopathological origin
# Method: Calcein AM cytotoxicity assay, summary statements over the cell line panel
# Assay type: cell-based
# Cond: range over RPMI 8226 and CEM values of Table 1
# Experimental: Stock solutions ([…]) were prepared by dissolving relevant quantity of substance in DMSO cultivation media (DMEM, RPMI 1640, F-12 medium), fetal bovine serum (FBS), L-glutamine, penicillin, and streptomycin were purchased from Sigma (MO, USA). 3-(4,5-Dimethylthiazol-2-yl)-2,5-diphenyltetrazolium bromide (MTT) was from Serva Electrophoresis (Heidelberg, Germany). Monoclonal mouse anti-bromodeoxyuridine (BrdU) intibody was obtained from DakoCytomation (Glostrup, Denmark). […]
Measure: IC50

INSERT INTO assay_data (compound, measure, readout_value) VALUES
  ('CC[C@@H](C(C)C)[C@H](O)[C@@H](O)[C@@H](C)[C@H]1CC[C@H]2[C@@H]3COC(=O)[C@H]4C[C@H](O)[C@H](O)C[C@]4(C)[C@H]3CC[C@]12C [22S,23S-28-Homobrassinolide]', 'IC50', '31 to 35 µM');

###

# System: multiple myeloma cell line RPMI 8226
# Method: Calcein AM cytotoxicity assay, RPMI 8226
# Assay type: cell-based
# Cond: Homo sapiens, RPMI-8226, read-out: IC50 assessed by Calcein AM assay of surviving cells, RPMI 8226; exposure 72 h (b71 says 96 h); mean ± SD
Parameter: IC50. Scope: all listed entries.
Measure: IC50

INSERT INTO measurements (compound, readout_value) VALUES
  ('CC(C)[C@H](C)[C@@H](O)[C@H](O)[C@@H](C)[C@H]1CCC2C3COC(=O)C4C[C@H](O)[C@H](O)C[C@]4(C)C3CC[C@@]21C (some centres unmarked)', '> 50 µM'),
  ('CC[C@H](/C=C/[C@@H](C)[C@H]1CC[C@H]2[C@@H]3CC=C4C[C@@H](O)CC[C@]4(C)[C@H]3CC[C@]12C)C(C)C', '> 30 µM');

###

# System: malignant human melanoma cell line G361
# Method: Calcein AM cytotoxicity assay, G 361
# Assay type: cell-based
# Cond: Homo sapiens, G-361, read-out: IC50 assessed by Calcein AM assay of surviving cells
pIC50: −log10 of the molar value.
Parameter: pIC50. Scope: all listed entries.
Measure: pIC50

INSERT INTO results (compound, readout_value) VALUES
  ('CC(C)[C@H](C)[C@@H](O)[C@H](O)[C@@H](C)[C@H]1CCC2C3COC(=O)C4C[C@H](O)[C@H](O)C[C@]4(C)C3CC[C@@]21C (some centres unmarked)', '< 4.30'),
  ('CC[C@H](/C=C/[C@@H](C)[C@H]1CC[C@H]2[C@@H]3CC=C4C[C@@H](O)CC[C@]4(C)[C@H]3CC[C@]12C)C(C)C', '< 4.30');

Reference source for all entries: patent US20100204460A1
